Experiment: self-splicing fitness, log relative to wild type (ln ratio); higher = more splicing; Tetrahymena group I intron in knt gene, E. coli kanamycin selection, DiMSum; sequences stand for … in CUCUCU…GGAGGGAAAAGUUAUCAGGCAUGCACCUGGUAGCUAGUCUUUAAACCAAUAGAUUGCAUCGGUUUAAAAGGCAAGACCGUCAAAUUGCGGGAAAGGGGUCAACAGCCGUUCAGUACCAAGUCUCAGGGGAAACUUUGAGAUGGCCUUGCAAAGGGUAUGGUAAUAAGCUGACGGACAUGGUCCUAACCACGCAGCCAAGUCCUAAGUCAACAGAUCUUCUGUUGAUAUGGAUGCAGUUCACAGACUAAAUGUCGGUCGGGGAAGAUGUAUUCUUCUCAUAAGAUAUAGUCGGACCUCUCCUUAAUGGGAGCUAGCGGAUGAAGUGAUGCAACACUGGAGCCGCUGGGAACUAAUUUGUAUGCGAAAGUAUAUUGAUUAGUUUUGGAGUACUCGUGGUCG;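 also: selection with 25 µg/mL kanamycin versus none on LB agar overnight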
Settings: 37 °C
MEASURED_QUANTITY: self-splicing fitness (ln)
Lab note: jot the number down without any unit.

{"INPUT_SEQUENCE": "UAGAAGCAAUAUUACGGGCG", "self-splicing fitness (ln)": -0.38}

Task item: Please give the measured self-splicing fitness (ln) for this sequence: `UAAGAGCAAUAUUACGAUAU`
Reply: -2.86

Task item: Please give the measured self-splicing fitness (ln) for this sequence: `GGACAGCAAUAUUACGAAAC`
Reply: -0.624

Task item: Please give the measured self-splicing fitness (ln) for this sequence: `CUGAAGCAAUAUUACGAAGU`
Reply: -2.77

Task item: Please give the measured self-splicing fitness (ln) for this sequence: `UCGUAGCAAUAUUACGCUUA`
Reply: -1.1

Task item: Please give the measured self-splicing fitness (ln) for this sequence: `UUCAAGCAAUAUUACGCACA`
Reply: 0.153
